TARGET_OR_TEST_SYSTEM: Endothelin-1 receptor (Sus scrofa)
ASSAY_OVERVIEW: Inhibition of endothelin (ET-A) binding to porcine heart membranes
Set-up: concentration or dose not given beside the values
SETUP_CONDITIONS: Membrane, concentration not given here
READOUT_TYPE: inhibition (%)

Example cases with answers are listed next.
CPD_SMILES: CC[C@H](C)[C@H](NC(=O)CNC(=O)[C@H](CCC(N)=O)NC(=O)[C@H](CC(C)C)NC(=O)[C@H](NC(C)=O)C1c2ccccc2CCc2ccccc21)C(=O)N[C@@H](Cc1c[nH]c2ccccc12)C(=O)O
VALUE_OBSERVED: 66
//
CPD_SMILES: CC[C@H](C)[C@H](NC(=O)CNC(=O)[C@H](CCCCN)NC(=O)[C@H](CC(C)C)NC(=O)[C@H](NC(C)=O)C1c2ccccc2CCc2ccccc21)C(=O)N[C@@H](Cc1c[nH]c2ccccc12)C(=O)O
VALUE_OBSERVED: 16
//
CPD_SMILES: CC[C@H](C)[C@H](NC(=O)CNC(=O)[C@H](CCSC)NC(=O)[C@H](CC(C)C)NC(=O)[C@H](NC(C)=O)C1c2ccccc2CCc2ccccc21)C(=O)N[C@@H](Cc1c[nH]c2ccccc12)C(=O)O
VALUE_OBSERVED: 61
//
CPD_SMILES: CC[C@H](C)[C@H](NC(=O)CNC(=O)[C@@H]1CCCN1C(=O)[C@H](CC(C)C)NC(=O)[C@H](NC(C)=O)C1c2ccccc2CCc2ccccc21)C(=O)N[C@@H](Cc1c[nH]c2ccccc12)C(=O)O
VALUE_OBSERVED: 7
//
CPD_SMILES: CC[C@H](C)[C@H](NC(=O)CNC(=O)[C@H](CCC(=O)O)NC(=O)[C@H](CC(C)C)NC(=O)[C@H](NC(C)=O)C1c2ccccc2CCc2ccccc21)C(=O)N[C@@H](Cc1c[nH]c2ccccc12)C(=O)O
VALUE_OBSERVED: 88

1: CC[C@H](C)[C@H](NC(=O)CNC(=O)[C@H](CC(=O)O)NC(=O)[C@H](CC(C)C)NC(=O)[C@H](NC(C)=O)C1c2ccccc2CCc2ccccc21)C(=O)N[C@@H](Cc1c[nH]c2ccccc12)C(=O)O
2: CC[C@H](C)[C@H](NC(=O)CNC(=O)[C@H](CCCN=C(N)N)NC(=O)[C@H](CC(C)C)NC(=O)[C@H](NC(C)=O)C1c2ccccc2CCc2ccccc21)C(=O)N[C@@H](Cc1c[nH]c2ccccc12)C(=O)O
3: CC[C@H](C)[C@H](NC(=O)CNC(=O)CNC(=O)[C@H](CC(C)C)NC(=O)[C@H](NC(C)=O)C1c2ccccc2CCc2ccccc21)C(=O)N[C@@H](Cc1c[nH]c2ccccc12)C(=O)O
4: CC[C@H](C)[C@H](NC(=O)CNC(=O)[C@H](C)NC(=O)[C@H](CC(C)C)NC(=O)[C@H](NC(C)=O)C1c2ccccc2CCc2ccccc21)C(=O)N[C@@H](Cc1c[nH]c2ccccc12)C(=O)O
Challenge: Please list these in order of increasing inhibition. Thank you! Submit the labels in the order that the ranking request calls for.
Response given: 2, 3, 4, 1

---

TARGET_OR_TEST_SYSTEM: Endothelin-1 receptor (Sus scrofa)
Sequence (Q29010 whole entry): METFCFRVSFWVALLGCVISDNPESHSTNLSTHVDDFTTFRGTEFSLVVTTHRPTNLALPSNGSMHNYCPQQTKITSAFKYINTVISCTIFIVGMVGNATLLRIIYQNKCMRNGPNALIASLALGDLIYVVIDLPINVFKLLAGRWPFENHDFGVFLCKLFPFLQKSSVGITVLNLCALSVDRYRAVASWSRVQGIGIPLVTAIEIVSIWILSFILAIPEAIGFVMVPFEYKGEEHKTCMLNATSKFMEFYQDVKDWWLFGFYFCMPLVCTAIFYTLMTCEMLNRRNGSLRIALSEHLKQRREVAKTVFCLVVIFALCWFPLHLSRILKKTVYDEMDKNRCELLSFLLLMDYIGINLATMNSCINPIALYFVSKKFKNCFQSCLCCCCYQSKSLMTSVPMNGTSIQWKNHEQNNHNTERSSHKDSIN
ASSAY_OVERVIEW: Antagonist activity against ET-A from porcine heart membranes
Type: functional, tissue-based
pIC50: −log10 of the molar value.
READOUT_TYPE: pIC50

Some compounds with recorded pIC50:
CPD_SMILES: CC[C@H](C)[C@H](NC(=O)[C@H](CC(=O)O)NC(=O)[C@H](Cc1ccc(O)cc1)NC(=O)[C@H](NC(C)=O)C1c2ccccc2CCc2ccccc21)C(=O)N[C@H](C(=O)N[C@@H](Cc1c[nH]c2ccccc12)C(=O)O)[C@@H](C)CC
TARGET_OR_TEST_SYSTEM: Endothelin-1 receptor (Sus scrofa)
pIC50: 7.96

CPD_SMILES: CC[C@H](C)[C@H](NC(=O)[C@H](CC(=O)O)NC(=O)[C@@H](NC(=O)[C@H](NC(C)=O)C1c2ccccc2CCc2ccccc21)C(C)C)C(=O)N[C@H](C(=O)N[C@@H](Cc1c[nH]c2ccccc12)C(=O)O)[C@@H](C)CC
TARGET_OR_TEST_SYSTEM: Endothelin-1 receptor (Sus scrofa)
pIC50: 7.92

1: CC[C@H](C)[C@H](NC(=O)[C@H](CC(=O)O)NC(=O)[C@@H](NC(=O)[C@H](NC(C)=O)C1c2ccccc2CCc2ccccc21)[C@@H](C)O)C(=O)N[C@H](C(=O)N[C@@H](Cc1c[nH]c2ccccc12)C(=O)O)[C@@H](C)CC
2: CC[C@H](C)[C@H](NC(=O)[C@H](CC(=O)O)NC(=O)[C@H](Cc1c[nH]cn1)NC(=O)[C@H](NC(C)=O)C1c2ccccc2CCc2ccccc21)C(=O)N[C@H](C(=O)N[C@@H](Cc1c[nH]c2ccccc12)C(=O)O)[C@@H](C)CC
3: CC[C@H](C)[C@H](NC(=O)[C@H](CC(=O)O)NC(=O)[C@@H](NC(=O)[C@H](NC(C)=O)C1c2ccccc2CCc2ccccc21)[C@@H](C)CC)C(=O)N[C@H](C(=O)N[C@@H](Cc1c[nH]c2ccccc12)C(=O)O)[C@@H](C)CC
4: CC[C@H](C)[C@H](NC(=O)[C@H](CC(=O)O)NC(=O)[C@H](CCC(N)=O)NC(=O)[C@H](NC(C)=O)C1c2ccccc2CCc2ccccc21)C(=O)N[C@H](C(=O)N[C@@H](Cc1c[nH]c2ccccc12)C(=O)O)[C@@H](C)CC
Challenge: Put these in order: smallest pIC50 first, largest last. As an answer, provide the labels arranged in the order called for.
Response given: 2, 3, 1, 4

---

TARGET_OR_TEST_SYSTEM: Endothelin-1 receptor (Sus scrofa) (UniProt Q29010)
Sequence (whole entry): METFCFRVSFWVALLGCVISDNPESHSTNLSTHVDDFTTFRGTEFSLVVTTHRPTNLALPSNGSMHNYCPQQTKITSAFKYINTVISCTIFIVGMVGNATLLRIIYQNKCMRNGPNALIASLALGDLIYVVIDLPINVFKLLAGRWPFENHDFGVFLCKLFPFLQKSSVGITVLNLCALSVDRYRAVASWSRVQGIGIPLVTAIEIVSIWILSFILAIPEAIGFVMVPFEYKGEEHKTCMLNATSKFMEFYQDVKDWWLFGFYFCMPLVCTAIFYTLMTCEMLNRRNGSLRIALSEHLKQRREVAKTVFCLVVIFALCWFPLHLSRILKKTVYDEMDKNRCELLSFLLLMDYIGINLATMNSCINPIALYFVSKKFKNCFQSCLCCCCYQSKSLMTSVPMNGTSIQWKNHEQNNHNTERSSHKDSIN
ASSAY_OVERVIEW: Inhibition of endothelin (ET-A) binding to porcine heart membranes
Design: concentration or dose not given beside the values
SETUP_CONDITIONS: Membrane, concentration not given here
Square brackets hold non-standard residues; d marks the D form. Peptide text beside a SMILES is read from it. dGly(5-dibenzosuberyl) = N[C@@H](C(=O)O)C1c2ccccc2CCc2ccccc21
READOUT_TYPE: inhibition (%)

Past entries and their recorded results:
COMPOUND: CC[C@H](C)[C@H](NC(=O)[C@H](Cc1c[nH]c2ccccc12)NC(=O)[C@H](CC(=O)O)NC(=O)[C@H](CC(C)C)NC(=O)[C@H](NC(C)=O)C1c2ccccc2CCc2ccccc21)C(=O)N[C@@H](Cc1c[nH]c2ccccc12)C(=O)O
TARGET_OR_TEST_SYSTEM: Endothelin-1 receptor (Sus scrofa) (UniProt Q29010)
READOUT_TYPE: inhibition
VALUE_OBSERVED: 0
--
COMPOUND: CC[C@H](C)[C@H](NC(=O)[C@H](CCCCN)NC(=O)[C@H](CC(=O)O)NC(=O)[C@H](CC(C)C)NC(=O)[C@H](NC(C)=O)C1c2ccccc2CCc2ccccc21)C(=O)N[C@@H](Cc1c[nH]c2ccccc12)C(=O)O
TARGET_OR_TEST_SYSTEM: Endothelin-1 receptor (Sus scrofa) (UniProt Q29010)
READOUT_TYPE: inhibition
VALUE_OBSERVED: 0
--
COMPOUND: CC[C@H](C)[C@H](NC(=O)[C@H](CC(=O)O)NC(=O)[C@H](CC(C)C)NC(=O)[C@H](NC(C)=O)C1c2ccccc2CCc2ccccc21)C(=O)N[C@H](C(=O)N[C@@H](Cc1c[nH]c2ccccc12)C(=O)O)[C@@H](C)CC (Ac-[dGly(5-dibenzosuberyl)]LDIIW-OH)
TARGET_OR_TEST_SYSTEM: Endothelin-1 receptor (Sus scrofa) (UniProt Q29010)
READOUT_TYPE: inhibition
VALUE_OBSERVED: 62
--
COMPOUND: CC[C@H](C)[C@H](NC(=O)[C@H](CC(C)C)NC(=O)[C@H](CC(=O)O)NC(=O)[C@H](CC(C)C)NC(=O)[C@H](NC(C)=O)C1c2ccccc2CCc2ccccc21)C(=O)N[C@@H](Cc1c[nH]c2ccccc12)C(=O)O
TARGET_OR_TEST_SYSTEM: Endothelin-1 receptor (Sus scrofa) (UniProt Q29010)
READOUT_TYPE: inhibition
VALUE_OBSERVED: 9
--
COMPOUND: CC[C@H](C)[C@H](NC(=O)[C@H](CCC(=O)O)NC(=O)[C@H](CC(=O)O)NC(=O)[C@H](CC(C)C)NC(=O)[C@H](NC(C)=O)C1c2ccccc2CCc2ccccc21)C(=O)N[C@@H](Cc1c[nH]c2ccccc12)C(=O)O
TARGET_OR_TEST_SYSTEM: Endothelin-1 receptor (Sus scrofa) (UniProt Q29010)
READOUT_TYPE: inhibition
VALUE_OBSERVED: 0

P: CC[C@H](C)[C@H](NC(=O)[C@H](CCSC)NC(=O)[C@H](CC(=O)O)NC(=O)[C@H](CC(C)C)NC(=O)[C@H](NC(C)=O)C1c2ccccc2CCc2ccccc21)C(=O)N[C@@H](Cc1c[nH]c2ccccc12)C(=O)O
Q: CC[C@H](C)[C@H](NC(=O)[C@@H]1CCCN1C(=O)[C@H](CC(=O)O)NC(=O)[C@H](CC(C)C)NC(=O)[C@H](NC(C)=O)C1c2ccccc2CCc2ccccc21)C(=O)N[C@@H](Cc1c[nH]c2ccccc12)C(=O)O
R: CC[C@H](C)[C@H](NC(=O)[C@@H](NC(=O)[C@H](CC(=O)O)NC(=O)[C@H](CC(C)C)NC(=O)[C@H](NC(C)=O)C1c2ccccc2CCc2ccccc21)C(C)C)C(=O)N[C@@H](Cc1c[nH]c2ccccc12)C(=O)O
S: CC[C@H](C)[C@H](NC(=O)CNC(=O)[C@H](CC(=O)O)NC(=O)[C@H](CC(C)C)NC(=O)[C@H](NC(C)=O)C1c2ccccc2CCc2ccccc21)C(=O)N[C@@H](Cc1c[nH]c2ccccc12)C(=O)O
T: CC[C@H](C)[C@H](NC(=O)[C@H](Cc1ccccc1)NC(=O)[C@H](CC(=O)O)NC(=O)[C@H](CC(C)C)NC(=O)[C@H](NC(C)=O)C1c2ccccc2CCc2ccccc21)C(=O)N[C@@H](Cc1c[nH]c2ccccc12)C(=O)O (Ac-[dGly(5-dibenzosuberyl)]LDFIW-OH)
Challenge: Parameters: sort_field (inhibition), sort_dir (desc). The labels, placed in the requested order, form the answer.
Response given: R, S, P, T, Q
